# experimental.target: UniProtKB Q99640
# Sequence (Q99640 whole entry): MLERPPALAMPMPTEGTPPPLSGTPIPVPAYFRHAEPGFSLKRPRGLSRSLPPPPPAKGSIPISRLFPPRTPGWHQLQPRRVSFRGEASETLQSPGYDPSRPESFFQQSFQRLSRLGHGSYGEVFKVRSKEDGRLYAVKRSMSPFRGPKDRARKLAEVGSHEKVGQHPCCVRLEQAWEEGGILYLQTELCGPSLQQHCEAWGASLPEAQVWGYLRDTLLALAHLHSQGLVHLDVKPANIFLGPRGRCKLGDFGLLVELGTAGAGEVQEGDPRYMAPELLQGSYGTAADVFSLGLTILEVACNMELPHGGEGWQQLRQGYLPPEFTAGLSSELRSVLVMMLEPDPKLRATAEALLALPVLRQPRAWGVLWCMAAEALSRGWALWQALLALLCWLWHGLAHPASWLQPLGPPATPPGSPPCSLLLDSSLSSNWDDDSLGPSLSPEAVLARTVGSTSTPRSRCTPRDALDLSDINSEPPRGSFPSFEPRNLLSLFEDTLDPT
Label key: yes (1) means IC50 under 3 µM; no (0) means IC50 of 3 µM or more.

Consider the worked cases shown below.
molecule | label.class
CC(C)(F)c1nc(-n2c3nc(Nc4ccc5c(c4)CCNC5)ncc3c(=O)n2C2CC2)ccc1F [1.2] | no (0)
CC(C)n1c(=O)c2cnc(Nc3ccc4c(c3)CNCC4)nc2n1-c1nc(C(C)(C)C)c(Cl)s1 [1.349] | no (0)
CC(C)n1c(=O)c2cnc(Nc3ccc4c(c3)CNCC43CC3)nc2n1-c1ccc(F)c(C(C)(C)O)n1 [1.254] | no (0)

Exercise: Quick check: IC50 of CC(C)n1c(=O)c2cnc(Nc3ccc4c(c3)CCNC4(C)C)nc2n1-c1ccc(F)c(C(C)(C)O)n1 [1.251] under 3 µM?
Solution: no (0)

Exercise: Lab log: compare recorded IC50 with 3 µM; is it strictly lower for CC(C)n1c(=O)c2cnc(Nc3ccc4c(c3)CCNC4)nc2n1-c1nc(C(C)(C)C#N)ccc1F [1.321] ?
Solution: no (0)

Exercise: Strictly below 3 µM in IC50? CC(C)n1c(=O)c2cnc(Nc3ccc4c(c3)CNCC4)nc2n1-c1cccc(C2(C#N)CC2)n1 [1.44]
Solution: yes (1)
